The reported measurements were obtained from patent US20250051344A1.

Target: SMARCA2 (Homo sapiens, UniProt P51531)
Construct: endogenous in cells
Sequence (P51531 whole entry, species assumed): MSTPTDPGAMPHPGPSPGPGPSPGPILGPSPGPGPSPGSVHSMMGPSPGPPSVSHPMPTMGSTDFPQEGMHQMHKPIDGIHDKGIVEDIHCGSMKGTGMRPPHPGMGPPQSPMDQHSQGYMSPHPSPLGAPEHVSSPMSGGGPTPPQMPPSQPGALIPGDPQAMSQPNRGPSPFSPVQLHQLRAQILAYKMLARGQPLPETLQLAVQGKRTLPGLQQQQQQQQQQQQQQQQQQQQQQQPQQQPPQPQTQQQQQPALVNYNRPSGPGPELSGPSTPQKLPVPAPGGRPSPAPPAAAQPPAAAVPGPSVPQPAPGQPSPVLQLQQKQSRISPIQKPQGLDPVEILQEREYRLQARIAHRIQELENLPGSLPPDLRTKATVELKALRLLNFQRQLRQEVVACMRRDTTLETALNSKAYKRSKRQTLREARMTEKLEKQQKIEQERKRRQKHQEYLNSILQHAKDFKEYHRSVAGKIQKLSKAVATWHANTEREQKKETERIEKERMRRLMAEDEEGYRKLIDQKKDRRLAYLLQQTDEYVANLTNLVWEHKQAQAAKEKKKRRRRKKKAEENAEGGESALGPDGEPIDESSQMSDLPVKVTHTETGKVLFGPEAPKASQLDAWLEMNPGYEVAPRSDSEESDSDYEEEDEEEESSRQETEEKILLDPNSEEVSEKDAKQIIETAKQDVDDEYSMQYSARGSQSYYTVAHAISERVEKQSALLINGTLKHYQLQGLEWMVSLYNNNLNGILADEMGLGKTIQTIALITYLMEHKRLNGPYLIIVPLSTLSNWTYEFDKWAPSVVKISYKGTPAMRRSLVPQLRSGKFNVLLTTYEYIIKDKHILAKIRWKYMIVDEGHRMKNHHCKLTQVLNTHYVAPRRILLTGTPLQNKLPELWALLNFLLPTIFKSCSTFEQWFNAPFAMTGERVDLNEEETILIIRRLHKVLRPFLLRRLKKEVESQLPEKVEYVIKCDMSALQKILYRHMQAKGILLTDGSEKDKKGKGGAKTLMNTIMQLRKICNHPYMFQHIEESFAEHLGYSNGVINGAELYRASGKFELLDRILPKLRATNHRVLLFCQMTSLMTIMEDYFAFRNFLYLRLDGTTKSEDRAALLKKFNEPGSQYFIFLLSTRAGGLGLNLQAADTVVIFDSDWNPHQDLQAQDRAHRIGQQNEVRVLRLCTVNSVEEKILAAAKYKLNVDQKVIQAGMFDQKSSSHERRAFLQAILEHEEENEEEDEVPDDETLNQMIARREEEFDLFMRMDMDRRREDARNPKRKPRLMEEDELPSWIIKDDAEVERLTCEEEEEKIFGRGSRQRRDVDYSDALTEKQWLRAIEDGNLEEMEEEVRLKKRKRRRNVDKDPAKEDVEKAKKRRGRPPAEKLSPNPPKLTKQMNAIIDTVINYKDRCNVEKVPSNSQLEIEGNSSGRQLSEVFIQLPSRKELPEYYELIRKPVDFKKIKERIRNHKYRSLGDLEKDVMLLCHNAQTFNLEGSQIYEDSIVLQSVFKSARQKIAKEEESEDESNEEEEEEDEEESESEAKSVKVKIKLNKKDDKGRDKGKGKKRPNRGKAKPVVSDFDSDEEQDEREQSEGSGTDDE
Assay: SMARCA2 Cellular Degradation Assay (Western blot analysis on Jess platform)
Assay type: cell-based
Settings: ratio DC50 SMARCA4 / DC50 SMARCA2
QUANTITY_MEASURED: Fold Selectivity SMARCA4/2

Item under review: CN(C(=O)C1(c2ccccc2)CCN(c2cnnc(-c3ccccc3O)c2)CC1)C1CCN(CC2CCN(c3ccc([C@H]4CCC(=O)NC4=O)cc3)CC2)C2(CCCCC2)C1 (mixture of isomers) [Example 153] . Reported Fold Selectivity SMARCA4/2?
5

I: O=C1CCC(c2ccc(N3CCC(CN4CC5(C4)CN(CC4(c6ccccc6)CCN(c6cnnc(-c7ccccc7O)c6)CC4)C5)CC3)cc2)C(=O)N1 (racemic) [Example 44]
II: O=C1CCC(Nc2ccc(C3CCN(CC4CCC45CN(C(=O)C4(c6ccccc6)CCN(c6cnnc(-c7ccccc7O)c6)CC4)C5)CC3)cc2)C(=O)N1 (racemic) [Example 177]
Select one: I or II . Criterion: greater recorded Fold Selectivity SMARCA4/2. Your answer should be the label of the entry you select.
II
(II: 6, I: 3.95)
